Entries annotated with measured growth at 10 µM
# System: HOP-92
# experimental details: Growth inhibition of human HOP92 cells assessed as cell growth at 10 uM after 48 hrs by SRB assay
# Type: functional
# measurement setup: HOP-92, 48 h, read-out: Activity
assay endpoint: growth at 10 µM

1. CNC(=O)NC[C@H]1O[C@@H](n2cnc3c(NC(=O)Nc4ccccc4)ncnc32)[C@H](O[Si](C)(C)C(C)(C)C)[C@@H]1CC(=O)N(C)OC ... 67%
2. CNC(=O)NC[C@H]1O[C@@H](n2cnc3c(NC(=O)Nc4ccccc4)ncnc32)[C@H](O[Si](C)(C)C(C)(C)C)[C@@H]1O[Si](C)(C)C(C)(C)C ... 69%
3. CNC(=O)OC[C@H]1O[C@@H](n2cnc3c(NC(=O)Nc4ccccc4)ncnc32)[C@H](O[Si](C)(C)C(C)(C)C)[C@@H]1O[Si](C)(C)C(C)(C)C ... 54.7%
4. CCOC(=O)C[C@H]1[C@@H](O[Si](C)(C)C(C)(C)C)[C@H](n2cnc3c(NC(=O)Nc4ccccc4)ncnc32)O[C@@H]1CNC(=O)NC ... 12%

====

# System: T47D
# experimental details: Growth inhibition of human T47D cells assessed as cell growth at 10 uM after 48 hrs by SRB assay
# Type: functional
# measurement setup: read-out: Activity
assay endpoint: growth at 10 µM (%)

1) CCOC(=O)C[C@H]1[C@@H](O[Si](C)(C)C(C)(C)C)[C@H](n2cnc3c(NC(=O)Nc4ccccc4)ncnc32)O[C@@H]1CNC(=O)NC ... 73
2) CNC(=O)NC[C@H]1O[C@@H](n2cnc3c(NC(=O)Nc4ccccc4)ncnc32)[C@H](O[Si](C)(C)C(C)(C)C)[C@@H]1O[Si](C)(C)C(C)(C)C ... 92
3) CNC(=O)NC[C@H]1O[C@@H](n2cnc3c(NC(=O)Nc4ccccc4)ncnc32)[C@H](O[Si](C)(C)C(C)(C)C)[C@@H]1CC(=O)N(C)OC ... 84
4) CNC(=O)OC[C@H]1O[C@@H](n2cnc3c(NC(=O)Nc4ccccc4)ncnc32)[C@H](O[Si](C)(C)C(C)(C)C)[C@@H]1O[Si](C)(C)C(C)(C)C ... 116

====

# System: ACHN
# experimental details: Growth inhibition of human ACHN cells assessed as cell growth at 10 uM after 48 hrs by SRB assay
# Type: functional
# measurement setup: read-out: Activity
assay endpoint: growth at 10 µM (%)

1) CNC(=O)NC[C@H]1O[C@@H](n2cnc3c(NC(=O)Nc4ccccc4)ncnc32)[C@H](O[Si](C)(C)C(C)(C)C)[C@@H]1CC(=O)N(C)OC ... 95
2) CNC(=O)NC[C@H]1O[C@@H](n2cnc3c(NC(=O)Nc4ccccc4)ncnc32)[C@H](O[Si](C)(C)C(C)(C)C)[C@@H]1O[Si](C)(C)C(C)(C)C ... 105
3) CCOC(=O)C[C@H]1[C@@H](O[Si](C)(C)C(C)(C)C)[C@H](n2cnc3c(NC(=O)Nc4ccccc4)ncnc32)O[C@@H]1CNC(=O)NC ... 96
